Molecular target: BB2R (Homo sapiens, UniProt P30550)
Construct: expressed in transfected cells; host or cells: NCI-H1299
Sequence (P30550 whole entry): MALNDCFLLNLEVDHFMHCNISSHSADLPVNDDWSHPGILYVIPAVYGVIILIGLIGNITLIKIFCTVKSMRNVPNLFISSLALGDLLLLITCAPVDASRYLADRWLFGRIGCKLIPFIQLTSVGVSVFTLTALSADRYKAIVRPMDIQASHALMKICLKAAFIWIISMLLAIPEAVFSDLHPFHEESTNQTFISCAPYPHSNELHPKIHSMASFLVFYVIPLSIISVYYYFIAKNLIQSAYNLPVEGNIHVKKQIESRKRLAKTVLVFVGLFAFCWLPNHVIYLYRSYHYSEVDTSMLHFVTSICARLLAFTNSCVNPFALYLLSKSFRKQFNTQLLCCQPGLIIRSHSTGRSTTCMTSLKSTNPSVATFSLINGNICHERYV
Assay: Cytosolic Ca2+ (Fura-2AM) in NCI-H1299 cells transfected with BB2R
Format: cell-based
Settings: 30 µM small molecule followed by 10 nM BA1
Marks after values point to notes of the source that are not given here.
VALUE KIND: Increase in cytosolic Ca2+, BB2R

Sample records with Increase in cytosolic Ca2+, BB2R:
| MOLECULE | MEASURED ON | Increase in cytosolic Ca2+, BB2R |
| --- | --- | --- |
| COc1ccc(NC(=O)N[C@H](Cc2c[nH]c3ccccc23)C(=O)NCC2(c3ccc(F)cc3)CCCCC2)cc1 [AM-13] | BB2R (Homo sapiens, UniProt P30550) | 5 ± 0.6^a nM |
| COc1ccc(NC(=O)N[C@H](Cc2c[nH]c3ccccc23)C(=O)NCC2(c3cccnc3)CCCCC2)cc1 [AM-37] | BB2R (Homo sapiens, UniProt P30550) | 0^a nM |
| COc1ccc(NC(=O)N[C@@H](Cc2c[nH]c3ccccc23)C(=O)NCC2(c3ccc(F)cc3)CCCCC2)cc1 [AM-14] | BB2R (Homo sapiens, UniProt P30550) | 6 + 0.5^a nM |

Asked: Any idea what Increase in cytosolic Ca2+, BB2R came out for COc1ccc(NC(=O)N[C@@H](Cc2c[nH]c3ccccc23)C(=O)NCC2(c3cccnc3)CCCCC2)cc1 [ST-36] on BB2R (Homo sapiens, UniProt P30550)?
Given back: 0^a nM

====

Sequence of the target: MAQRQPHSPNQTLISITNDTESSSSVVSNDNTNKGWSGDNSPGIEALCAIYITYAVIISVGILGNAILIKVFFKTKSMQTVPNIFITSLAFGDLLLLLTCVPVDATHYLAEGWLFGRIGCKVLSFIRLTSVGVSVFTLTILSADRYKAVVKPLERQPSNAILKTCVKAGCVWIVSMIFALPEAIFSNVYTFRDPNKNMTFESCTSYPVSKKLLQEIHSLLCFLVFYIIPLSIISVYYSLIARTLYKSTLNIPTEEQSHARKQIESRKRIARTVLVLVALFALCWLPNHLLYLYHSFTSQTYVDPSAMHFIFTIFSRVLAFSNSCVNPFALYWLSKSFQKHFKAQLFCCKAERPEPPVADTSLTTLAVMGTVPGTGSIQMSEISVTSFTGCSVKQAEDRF
VALUE KIND: pKi
Kindly note that pKi refers to -log10 of the concentration in mol/L and answer with the value alone.

Asked: Name the reported pKi value associated with the compound COc1ccc(NC(=O)N[C@@H](Cc2c[nH]c3ccccc23)C(=O)NCC2(c3cccnc3)CCCCC2)cc1
Given back: 4.97

====

Increase in cytosolic Ca2+, BRS-3 values by entry
Target: BRS-3 (Homo sapiens)
Construct: expressed in transfected cells; host or cells: NCI-H1299
Sequence (P32247 1-399): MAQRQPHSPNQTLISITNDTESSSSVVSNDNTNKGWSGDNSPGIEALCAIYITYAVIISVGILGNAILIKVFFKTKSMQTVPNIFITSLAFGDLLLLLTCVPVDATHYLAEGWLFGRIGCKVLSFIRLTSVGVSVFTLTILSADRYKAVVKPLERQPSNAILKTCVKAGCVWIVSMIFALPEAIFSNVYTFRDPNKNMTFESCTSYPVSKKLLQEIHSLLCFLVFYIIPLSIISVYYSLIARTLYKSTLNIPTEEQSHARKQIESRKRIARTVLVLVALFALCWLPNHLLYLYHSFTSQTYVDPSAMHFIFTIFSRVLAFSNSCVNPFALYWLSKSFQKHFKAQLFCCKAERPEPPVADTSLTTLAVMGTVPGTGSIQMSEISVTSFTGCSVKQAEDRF
Experiment: Cytosolic Ca2+ (Fura-2AM) in NCI-H1299 cells transfected with BRS-3
Assay type: cell-based
Conditions: 30 µM small molecule followed by 10 nM BA1
Marks after values point to notes of the source that are not given here.

Asked: Name the reported Increase in cytosolic Ca2+, BRS-3 value associated with the compound COc1ccc(NC(=O)N[C@H](Cc2c[nH]c3ccccc23)C(=O)NCC2(c3ccc(F)cc3)CCCCC2)cc1
Given back: 2 ± 0.3^a nM

Asked: Please give the result for COc1ccc(NC(=O)N[C@H](Cc2c[nH]c3ccccc23)C(=O)NCC2(c3cccnc3)CCCCC2)cc1 too.
Given back: 0^a nM

Asked: Please give the result for COc1ccc(NC(=O)N[C@@H](Cc2c[nH]c3ccccc23)C(=O)NCC2(c3cccnc3)CCCCC2)cc1 too.
Given back: 0^a nM

Asked: Please give the result for COc1ccc(NC(=O)N[C@@H](Cc2c[nH]c3ccccc23)C(=O)NCC2(c3ccc(F)cc3)CCCCC2)cc1 too.
Given back: 3 + 0.4^a nM

====

Hi! I'm sharing some Ki results obtained with BB1R (Homo sapiens, UniProt P28336).
Sequence (P28336 whole entry): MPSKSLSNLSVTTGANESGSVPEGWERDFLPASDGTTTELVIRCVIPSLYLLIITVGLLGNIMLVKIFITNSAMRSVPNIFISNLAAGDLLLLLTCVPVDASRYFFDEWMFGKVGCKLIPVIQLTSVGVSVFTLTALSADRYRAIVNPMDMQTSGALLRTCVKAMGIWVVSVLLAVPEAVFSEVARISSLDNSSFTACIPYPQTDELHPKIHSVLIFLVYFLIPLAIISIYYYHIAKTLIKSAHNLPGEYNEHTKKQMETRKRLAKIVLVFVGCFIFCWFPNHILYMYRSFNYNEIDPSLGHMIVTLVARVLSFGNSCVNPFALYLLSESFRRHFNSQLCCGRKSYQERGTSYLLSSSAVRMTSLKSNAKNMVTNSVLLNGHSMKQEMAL

| CHEMICAL SMILES | Ki |
| --- | --- |
| COc1ccc(NC(=O)N[C@H](Cc2c[nH]c3ccccc23)C(=O)NCC2(c3ccc(F)cc3)CCCCC2)cc1 | > 100 µM |

Asked: Name the reported Ki value associated with the compound COc1ccc(NC(=O)N[C@@H](Cc2c[nH]c3ccccc23)C(=O)NCC2(c3ccc(F)cc3)CCCCC2)cc1
Given back: > 100 µM

====

Target: BB2R (Homo sapiens)
VALUE KIND: pKi
Kindly note that pKi refers to -log10 of the concentration in mol/L and answer with the value alone.

Asked: Name the reported pKi value associated with the compound COc1ccc(NC(=O)N[C@@H](Cc2c[nH]c3ccccc23)C(=O)NCC2(c3ccc(F)cc3)CCCCC2)cc1 [AM-14]
Given back: 4.35
